These measurements were taken from the supplement of paper PMC10567573.

B1: CDC25B (parent)
chain: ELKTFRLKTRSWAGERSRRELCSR

# Variants of: B1
# EXPERIMENTAL PROTOCOL: protein stability index of a GFP-peptide fusion (GPS, HEK-293T) (PSI 1-6); higher = more stable;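 further: lentivirally expressed fusions sorted by FACS into six bins by GFP to DsRed ratio, PSI derived from sequencing read proportions per bin multiplied by bin number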
# CONDITION CONTEXT: c terminus: a fixed tail appended
# key: entry, value: protein stability index

**Q:** Fill in: protein stability index of `L2K` is ___
**A:** 3.53

**Q:** Look at this variant and give its reported protein stability index. `R10M`
**A:** 2.92

**Q:** State the recorded protein stability index for this entry: `L2A`
**A:** 4.42

**Q:** Return reported protein stability index; argument: `E1G`
**A:** 3.09

**Q:** Would you kindly share the measured protein stability index for `E15W` ?
**A:** 2.4

**Q:** Given the entry `R16G` , report its measured protein stability index.
**A:** 3.74

**Q:** Sample `S23C` — what was its protein stability index?
**A:** 3.05

**Q:** # input variant: `L2Y` ; wanted: its protein stability index
**A:** 3.78

**Q:** Would you mind telling me what protein stability index value was observed for `R19I` ?
**A:** 2.57

**Q:** # input variant: `L2E` ; wanted: its protein stability index
**A:** 4.97
